# Tested System: tubulin (Sus scrofa, UniProt P02550+P02554)
# Construct: Tubulin is purified from pig brain according to published methods
# Sequence (P02550 whole entry): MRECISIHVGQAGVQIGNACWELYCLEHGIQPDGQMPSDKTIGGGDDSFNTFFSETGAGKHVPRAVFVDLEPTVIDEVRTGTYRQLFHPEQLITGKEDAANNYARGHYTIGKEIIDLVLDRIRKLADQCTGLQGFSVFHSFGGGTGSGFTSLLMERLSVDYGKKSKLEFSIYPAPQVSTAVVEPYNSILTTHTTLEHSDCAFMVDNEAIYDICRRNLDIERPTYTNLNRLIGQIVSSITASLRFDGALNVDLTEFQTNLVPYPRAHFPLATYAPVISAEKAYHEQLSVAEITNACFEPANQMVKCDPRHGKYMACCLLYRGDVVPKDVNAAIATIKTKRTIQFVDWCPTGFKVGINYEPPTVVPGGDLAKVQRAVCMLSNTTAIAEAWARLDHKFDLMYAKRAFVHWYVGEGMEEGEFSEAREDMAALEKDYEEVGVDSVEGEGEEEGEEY
# Sequence (P02554 whole entry): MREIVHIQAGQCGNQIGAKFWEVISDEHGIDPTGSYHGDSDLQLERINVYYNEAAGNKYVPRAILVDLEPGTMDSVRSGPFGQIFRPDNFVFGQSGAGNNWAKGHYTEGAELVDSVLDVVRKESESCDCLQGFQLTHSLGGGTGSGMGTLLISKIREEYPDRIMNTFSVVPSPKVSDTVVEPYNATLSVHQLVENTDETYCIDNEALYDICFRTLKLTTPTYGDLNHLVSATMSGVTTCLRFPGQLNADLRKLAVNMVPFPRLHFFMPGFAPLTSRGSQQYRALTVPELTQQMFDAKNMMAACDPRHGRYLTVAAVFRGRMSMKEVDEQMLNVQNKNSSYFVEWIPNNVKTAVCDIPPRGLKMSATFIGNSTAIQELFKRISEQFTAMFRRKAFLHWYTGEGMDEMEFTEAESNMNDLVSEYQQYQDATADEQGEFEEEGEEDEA
# Assay Procedure: Evaluation of the inhibition of tubulin polymerization (turbidimetry)
# Settings: tubulin 10 μm (1 mg/ml), 37° C., turbidity at 350 nm; concentration that inhibits the rate of polymerization by 50%; read-out: Inhibition of tubulin polymerization IC 50 (μm)
# Experimental: Tubulin is purified from pig brain according to published methods (Shelanski et al., 1973, Proc. Natl. Acad. Sci. USA, 70, 765-768. Weingarten et al., 1975, Proc. Natl. Acad. Sci. USA, 72, 1858-1862). […] The polymerization of tubulin to microtubules is monitored by turbidimetry as follows: the tubulin is adjusted to a concentration of 10 μm (1 mg/ml) in RB/2 30% glycerol buffer to which 1 mM GTP and 6 mM MgCl2 are added. […] The increase in the turbidity of the solution is monitored at 350 nm. […]
Measured Property: IC50 (µM)
Provide the reading as a plain figure in µM.

Please review the entries below; each comes with its answer.
Cc1cc(C(=O)N2CCN(c3ccccc3)CC2)n(-c2ccc(F)cc2)n1    5
COc1ccccc1N1CCN(C(=O)c2cc(C)nn2-c2cccc(F)c2)CC1    3

Attention now shifts to the item below.
Entry Cc1cc(C(=O)N2CCN(c3cccnc3)CC2)n(-c2ccccc2)n1 ; IC50 = 2.2
